target-desc: P70S6K (T412E mutant, Millipore) (Homo sapiens, UniProt P23443, T412E)
Sequence (P23443 whole entry T412E): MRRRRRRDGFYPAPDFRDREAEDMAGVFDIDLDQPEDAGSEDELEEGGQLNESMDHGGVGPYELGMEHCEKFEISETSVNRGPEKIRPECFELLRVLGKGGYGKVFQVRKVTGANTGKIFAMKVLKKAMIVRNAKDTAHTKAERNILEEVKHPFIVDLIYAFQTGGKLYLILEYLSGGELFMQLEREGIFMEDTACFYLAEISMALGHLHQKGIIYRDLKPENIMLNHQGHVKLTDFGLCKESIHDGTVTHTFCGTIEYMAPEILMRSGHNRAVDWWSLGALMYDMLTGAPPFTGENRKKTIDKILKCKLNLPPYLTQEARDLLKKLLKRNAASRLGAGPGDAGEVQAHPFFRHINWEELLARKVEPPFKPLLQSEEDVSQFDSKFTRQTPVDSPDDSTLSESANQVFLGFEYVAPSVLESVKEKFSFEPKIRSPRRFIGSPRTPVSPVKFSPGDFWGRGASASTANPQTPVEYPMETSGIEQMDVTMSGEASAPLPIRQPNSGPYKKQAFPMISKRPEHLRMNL
assay-comment: P70S6K Enzyme Assay
conditions-used: 3 nM enzyme, 24 μM ATP, 1 μM FITC-AHA-[…]-OH substrate peptide, 90 min at 25° C., Caliper Lab Chip 3000
Dear colleague, classification is by IC50, with ranges listed here: low interval: < 3 nM; middle interval: ≥ 3 nM and < 10 nM; high interval: ≥ 10 nM

Recorded results for 5 molecules are shown here.
[[record]]
mol = "Cc1nc(N[C@H](CN2CCC2)c2ccccc2)c2cccc(C(N)=O)c2n1"
assigned_class = "middle interval"

[[record]]
mol = "CNC[C@@H](Nc1nc(C(F)(F)F)nc2c(C(N)=O)cccc12)c1cccc(F)c1"
assigned_class = "middle interval"

[[record]]
mol = "CNC[C@@H](Nc1nc(C)nc2c(C(N)=O)cccc12)c1cc(F)c(F)cc1F"
assigned_class = "low interval"

[[record]]
mol = "Cc1nc(N[C@H](CN2CCC2)c2ccc(F)cc2)c2cccc(C(N)=O)c2n1"
assigned_class = "high interval"

[[record]]
mol = "CNC[C@@H](Nc1nc(C)nc2c(C(N)=O)cccc12)c1ccc(F)cc1"
assigned_class = "low interval"


q: Given CNC[C@@H](Nc1nc(C)nc2c(C(N)=O)cccc12)c1ccc(F)cc1F , name the class its IC50 places it in.
a: middle interval

q: Consider next the molecule CNC[C@@H](Nc1nc(C)nc2c(C(N)=O)cccc12)c1ccc(Cl)c(Cl)c1 in the same way.
a: high interval

q: Consider next the molecule CCc1nc(N[C@H](CNC)c2ccc(Cl)cc2)c2cccc(C(N)=O)c2n1 in the same way.
a: low interval

q: Consider next the molecule Cc1nc(N[C@@H](Cc2ccccc2)CN(C)C)c2cccc(C(N)=O)c2n1 in the same way.
a: high interval

q: Consider next the molecule CCc1nc(N[C@H](CNC)c2cccc(F)c2Cl)c2cccc(C(N)=O)c2n1 in the same way.
a: middle interval

q: Consider next the molecule CNC[C@@H](Nc1nc(C)nc2c(C(N)=O)cccc12)c1c(F)cccc1F in the same way.
a: middle interval

###

Quick list: pIC50 per entry.
target-desc: P70S6K (T412E mutant, Millipore) (Homo sapiens, UniProt P23443, T412E)
assay-comment: P70S6K Enzyme Assay
conditions-used: 3 nM enzyme, 24 μM ATP, 1 μM FITC-AHA-[…]-OH substrate peptide, 90 min at 25° C., Caliper Lab Chip 3000
In textbook form, pIC50 equals minus log to base ten of the concentration in mol/L.

[[record]]
mol = "CNC[C@@H](Nc1nc(C)nc2c(C(N)=O)cccc12)c1cc(F)ccc1OC"
target_desc = "P70S6K (T412E mutant, Millipore) (Homo sapiens, UniProt P23443, T412E)"
reported = 7.92

[[record]]
mol = "NC[C@@H](Nc1nc(C(F)(F)F)nc2c(C(N)=O)cccc12)c1ccccc1"
target_desc = "P70S6K (T412E mutant, Millipore) (Homo sapiens, UniProt P23443, T412E)"
reported = 8.10


q: Enter reported pIC50 observed with P70S6K (T412E mutant, Millipore) (Homo sapiens, UniProt P23443, T412E) for CCc1nc(N[C@H](CNC)c2cccc(Cl)c2)c2cccc(C(N)=O)c2n1
a: 9.06

q: Consider next the compound CNC[C@@H](Nc1nc(C)nc2c(C(N)=O)cccc12)c1cccc(Cl)c1 in the same way.
a: 9.01

q: Consider next the compound CNC[C@@H](Nc1nc(C)nc2c(C(N)=O)cccc12)c1ccc(F)cc1C(F)(F)F in the same way.
a: 6.59

q: Consider next the compound CNC[C@@H](Nc1nc(C)nc2c(C(N)=O)cccc12)c1ccccc1 in the same way.
a: 8.19

q: Consider next the compound CNC[C@@H](Nc1nc(C)nc2c(C(N)=O)cccc12)c1ccc(C(F)(F)F)cc1 in the same way.
a: 9.00
